Test system: PfSIP2 AP2 domain 1 (GST-tagged)
Experiment: gcPBM binding intensity (ln(normalized median fluorescence intensity)); higher = stronger DNA binding
Over roughly 25,000 sequences, “ln(normalized median fluorescence intensity)” has its median near 7.1; the highest 2% begin near 10. Many of the other results were omitted from the sample, so the highest values are more common in it than they were.
Items are presented alongside their recorded gcPBM binding intensity (ln).

{"RESIDUE_SEQUENCE": "ATTCGTCACATTTTTTGATATATATATATATATATA [CACACA_negctrl_site1785]", "ASSAY_TARGET": "PfSIP2 AP2 domain 1 (GST-tagged)", "gcPBM binding intensity (ln)": 9.68}
{"RESIDUE_SEQUENCE": "TTTTTTTTTTTCTTTGCACACAGATAACTTGAAATT [CACACA_site2184]", "ASSAY_TARGET": "PfSIP2 AP2 domain 1 (GST-tagged)", "gcPBM binding intensity (ln)": 7.2}
{"RESIDUE_SEQUENCE": "TAGATTATTATACTAGTGCAAATTATTTAAGAAAAA", "ASSAY_TARGET": "PfSIP2 AP2 domain 1 (GST-tagged)", "gcPBM binding intensity (ln)": 8.09}
{"RESIDUE_SEQUENCE": "AAAAGAAAATTAAATTAACACACATAAATATATATA [CACACA_site8482]", "ASSAY_TARGET": "PfSIP2 AP2 domain 1 (GST-tagged)", "gcPBM binding intensity (ln)": 7.27}
{"RESIDUE_SEQUENCE": "AAGAAAAATATATATATAAATAAATAAATATATATA [TGCATGCA_negctrl_site330]", "ASSAY_TARGET": "PfSIP2 AP2 domain 1 (GST-tagged)", "gcPBM binding intensity (ln)": 6.98}

---

Tested on: PfSIP2 AP2 domain 1 (GST-tagged)
Experiment: gcPBM binding intensity (ln(normalized median fluorescence intensity)); higher = stronger DNA binding
In all, about 25,000 sequences were measured (“ln(normalized median fluorescence intensity)”: median about 7.1, highest 2% from about 10 on). What follows is part of a selection rich in the highest values, with near analogues and random picks from the rest.
QUANTITY_MEASURED: gcPBM binding intensity (ln)

{"RESIDUE_SEQUENCE": "TAGAATGTATGTAGTGCACACCTCTATAATATATTA [CACACA_site1873]", "ENDPOINT_VALUE": 10.7}
{"RESIDUE_SEQUENCE": "AACATACCCATATACACACACACATAAATACAGATA [CACACA_site4744]", "ENDPOINT_VALUE": 7.3}
{"RESIDUE_SEQUENCE": "ACATATAATAAAATAGTGCATTGTTAGTTTTATATA", "ENDPOINT_VALUE": 9.85}
{"RESIDUE_SEQUENCE": "TGTAATATATGTATTGCACACCTATAACCATTATTT [CACACA_site8422]", "ENDPOINT_VALUE": 7.17}
{"RESIDUE_SEQUENCE": "ATATATATTATATAGTGTACCTATGTATAATAATAT [XGTACX_site1683]", "ENDPOINT_VALUE": 7.16}

---

System: PfSIP2 AP2 domain 1 (GST-tagged)
Test: gcPBM binding intensity (ln(normalized median fluorescence intensity)); higher = stronger DNA binding
Over roughly 25,000 sequences, “ln(normalized median fluorescence intensity)” has its median near 7.1; the highest 2% begin near 10. For the sample, the highest values were picked, then their nearest neighbours and some sequences at random.
Items are presented alongside their recorded gcPBM binding intensity (ln).
QUANTITY_MEASURED: gcPBM binding intensity (ln)

{"RESIDUE_SEQUENCE": "TACAAAAAAGAAGATATTCAAACAAAAACAAAAAAA [CACACA_negctrl_site1126]", "ENDPOINT_VALUE": 6.8}
{"RESIDUE_SEQUENCE": "ATCTTTCAATAATTCACACATATATATATATATATA [CACACA_site4598]", "ENDPOINT_VALUE": 9.91}
{"RESIDUE_SEQUENCE": "ATAAAAAACTCAGAGCGTACATAATTTTTTCTATTT [XGTACX_site2803]", "ENDPOINT_VALUE": 7.24}
{"RESIDUE_SEQUENCE": "ATAAAAAAAAAATAATGTACTTATATATATATATAT [XGTACX_site8282]", "ENDPOINT_VALUE": 9.32}
{"RESIDUE_SEQUENCE": "GAAAGAATAAAATAAACATGCAAATAAAACATAAAA [TGCATGCA_site471]", "ENDPOINT_VALUE": 7.2}
{"RESIDUE_SEQUENCE": "ATAAAATATATATGCACACACATATATATTTCATAC [CACACA_site3547]", "ENDPOINT_VALUE": 7.24}
{"RESIDUE_SEQUENCE": "CAGTTGTTAATTTGTGTGCACCAAATATTATACATA", "ENDPOINT_VALUE": 11.2}
{"RESIDUE_SEQUENCE": "AAAAAACGCACTCGTACACACATATTTTCTTTCTAA [CACACA_site3089]", "ENDPOINT_VALUE": 8.76}
{"RESIDUE_SEQUENCE": "CACCCTTTGTTTTAGAGTACATATGTATATACGTAA [XGTACX_site7964]", "ENDPOINT_VALUE": 7.53}
{"RESIDUE_SEQUENCE": "AAAGGTTCACATTATATAGTTATGTAATATATATGT [CACACA_negctrl_site542]", "ENDPOINT_VALUE": 6.84}
{"RESIDUE_SEQUENCE": "AAAAGGAACGGACACACACACATATATATATATATA [CACACA_site5894]", "ENDPOINT_VALUE": 9.31}
{"RESIDUE_SEQUENCE": "AACAAAGAAAATACATGTACAAAAAATATTAACGAA [XGTACX_site287]", "ENDPOINT_VALUE": 7.22}
{"RESIDUE_SEQUENCE": "CACATAAAATAAGGTGCATGCAAACGAGAAAATAAA [TGCATGCA_site75]", "ENDPOINT_VALUE": 11}
{"RESIDUE_SEQUENCE": "ATAAATTTTTAAAAATATGAATTATGTAATTTGTGA [CACACA_negctrl_site1621]", "ENDPOINT_VALUE": 6.92}
{"RESIDUE_SEQUENCE": "CCCCTTAATTAAAGGAGTACTATTTGTGAATAATAT [XGTACX_site4715]", "ENDPOINT_VALUE": 7.47}
{"RESIDUE_SEQUENCE": "CCTATATAATATATTTGTACTTAATAATTAAAGTGT [XGTACX_site5151]", "ENDPOINT_VALUE": 7.16}
{"RESIDUE_SEQUENCE": "TATGGAAGAAAATATACACACAAAAAAAAAAAATGG [CACACA_site4924]", "ENDPOINT_VALUE": 6.99}
{"RESIDUE_SEQUENCE": "TTTCTAATTTATATCACACACATATAAATATAGTAA [CACACA_site6210]", "ENDPOINT_VALUE": 7.19}
{"RESIDUE_SEQUENCE": "AAATATTACATTTGTTAAATAATATGTTATACATAA [XGTACX_negctrl_site484]", "ENDPOINT_VALUE": 6.96}
{"RESIDUE_SEQUENCE": "ACGGAAAAAGAAAAGGTGCATATGGACACAATATAT", "ENDPOINT_VALUE": 11.3}
